System: PDC 899932-113-R3-J6 complex spheroid viability
Test: Anticancer human tumor 899932-113-R3-J6-PDC patient-derived melanoma cell line growth inhibition [RAS]
Conditions: second compound 0.003 µM; first compound 0.1 µM; stronger effect = lower value
Text: RAS pathway inhibitors in Combinations in Complex Spheroids A high-throughput screen of multi-cell type tumor spheroids was designed to identify active combinations of RAS pathway inhibitors and targeted small molecules. Complex spheroids include a stromal component modeled by human endothelial cells (HUVEC) and fibroblasts modeled by human mesenchymal stem cells (MSCs). […] Compounds. […] If the clinical Cmax for an agent had not been determined, the highest concentration tested was 10 microM. […]
Recorded viability, T/C for the following molecules

MOLECULE	viability, T/C
CC(=O)OC12COC1CC(O)C1(C)C(=O)C(O)C3=C(C)C(OC(=O)C(O)C(NC(=O)OC(C)(C)C)c4ccccc4)CC(O)(C(OC(=O)c4ccccc4)C21)C3(C)C (stereo not given) + CCn1c(-c2cc(N3CCN(C)CC3)cnc2C(C)OC)c2c3cc(ccc31)-c1csc(n1)CC(NC(=O)C1CC1C)C(=O)N1CCCC(N1)C(=O)OCC(C)(C)C2	10.3%
CC(Nc1ccc2c(c1)OCCn1cc(N3C(=O)OCC3C(F)F)nc1-2)C(N)=O (stereo not given) + CCn1c(-c2cccnc2C(C)OC)c2c3cc(ccc31)N1CCOC(CC(NC(=O)C(C(C)C)N(C)C(=O)C3(F)CCN(C(=O)C#CC(C)(C)N(C)C)CC3)C(=O)N3CCCC(N3)C(=O)OCC(C)(C)C2)C1	80.9%
Nc1ccn(C2OC(CO)C(O)C2(F)F)c(=O)n1 (stereo not given) + CCn1c(-c2cc(N3CCN(C)CC3)cnc2C(C)OC)c2c3cc(ccc31)-c1csc(n1)CC(NC(=O)C1CC1C)C(=O)N1CCCC(N1)C(=O)OCC(C)(C)C2	6.99%

INPUT: Item: CCC(CC)c1cc(NC2CCC(N)C2)n2nccc2n1 (stereo not given) + CCn1c(-c2cc(N3CCN(C)CC3)cnc2C(C)OC)c2c3cc(ccc31)-c1csc(n1)CC(NC(=O)C1CC1C)C(=O)N1CCCC(N1)C(=O)OCC(C)(C)C2 Test system: PDC 899932-113-R3-J6 complex spheroid viability Read-out: viability, T/C Value: ?
OUTPUT: 28.2%

INPUT: Item: Nc1ccn(C2OC(CO)C(O)C2(F)F)c(=O)n1 (stereo not given) + CCn1c(-c2cccnc2C(C)OC)c2c3cc(ccc31)N1CCOC(CC(NC(=O)C(C(C)C)N(C)C(=O)C3(F)CCN(C(=O)C#CC(C)(C)N(C)C)CC3)C(=O)N3CCCC(N3)C(=O)OCC(C)(C)C2)C1 Test system: PDC 899932-113-R3-J6 complex spheroid viability Read-out: viability, T/C Value: ?
OUTPUT: 17.1%

----------
Recorded IC50 for the following compounds
Test system: PDC 899932-113-R3-J6 complex spheroid viability
Test: Anticancer human tumor 899932-113-R3-J6-PDC cell line growth inhibition [RAS]
Settings: curve of first compound; second compound 0.01 µM

As a guide, the following entries are already answered.
COMPOUND	IC50
CCc1c2c(nc3ccc(O)cc13)-c1cc3c(c(=O)n1C2)COC(=O)[C@]3(O)CC + C=CC(=O)N1CCN(c2nc(OCC3CCCN3C)nc3c(F)c(-c4nc(N)cc(C)c4C(F)(F)F)c(Cl)cc23)C(C)C1	0.0243 µM
Nc1ccn(C2OC(CO)C(O)C2(F)F)c(=O)n1 (stereo not given) + C=CC(=O)N1CCN(c2nc(OCC3CCCN3C)nc3c(F)c(-c4nc(N)cc(C)c4C(F)(F)F)c(Cl)cc23)C(C)C1	0.0193 µM
CC(C)NCC(C(=O)N1CCN(c2ncnc3c2C(C)CC3O)CC1)c1ccc(Cl)cc1 (stereo not given) + C=CC(=O)N1CCN(c2nc(OCC3CCCN3C)nc3c(F)c(-c4nc(N)cc(C)c4C(F)(F)F)c(Cl)cc23)C(C)C1	5.2 µM
CC(Nc1ccc2c(c1)OCCn1cc(N3C(=O)OCC3C(F)F)nc1-2)C(N)=O (stereo not given) + C=CC(=O)N1CCN(c2nc(OCC3CCCN3C)nc3c(F)c(-c4nc(N)cc(C)c4C(F)(F)F)c(Cl)cc23)C(C)C1	2.01 µM
CC(=O)OC12COC1CC(O)C1(C)C(=O)C(O)C3=C(C)C(OC(=O)C(O)C(NC(=O)OC(C)(C)C)c4ccccc4)CC(O)(C(OC(=O)c4ccccc4)C21)C3(C)C (stereo not given) + C=CC(=O)N1CCN(c2nc(OCC3CCCN3C)nc3c(F)c(-c4nc(N)cc(C)c4C(F)(F)F)c(Cl)cc23)C(C)C1	< 0.0316 µM
NC1c2ccccc2OC12CCN(c1cnc3c(N4CCCc5ncccc54)n[nH]c3n1)CC2 (stereo not given) + C=CC(=O)N1CCN(c2nc(OCC3CCCN3C)nc3c(F)c(-c4nc(N)cc(C)c4C(F)(F)F)c(Cl)cc23)C(C)C1	> 10 µM
C[C@@H](NC(=O)c1ncnc(N)c1Cl)c1ncc(C(=O)Nc2cc(C(F)(F)F)c(Cl)cn2)s1 + C=CC(=O)N1CCN(c2nc(OCC3CCCN3C)nc3c(F)c(-c4nc(N)cc(C)c4C(F)(F)F)c(Cl)cc23)C(C)C1	7.01 µM
C=CC(=O)Nc1cc(Nc2nccc(-c3cn(C)c4ccccc34)n2)c(OC)cc1N(C)CCN(C)C + C=CC(=O)N1CCN(c2nc(OCC3CCCN3C)nc3c(F)c(-c4nc(N)cc(C)c4C(F)(F)F)c(Cl)cc23)C(C)C1	> 1 µM

INPUT: For the compound CC1(C)CCC(Nc2ncc(C(F)(F)F)c(-c3c[nH]c4c(P(C)(C)=O)c(C#N)ccc34)n2)CN1 (stereo not given) + C=CC(=O)N1CCN(c2nc(OCC3CCCN3C)nc3c(F)c(-c4nc(N)cc(C)c4C(F)(F)F)c(Cl)cc23)C(C)C1 , what IC50 is on record?
OUTPUT: 0.00974 µM

INPUT: For the compound CCC(CC)c1cc(NC2CCC(N)C2)n2nccc2n1 (stereo not given) + C=CC(=O)N1CCN(c2nc(OCC3CCCN3C)nc3c(F)c(-c4nc(N)cc(C)c4C(F)(F)F)c(Cl)cc23)C(C)C1 , what IC50 is on record?
OUTPUT: 1.72 µM

----------
Tested on: PDC 899932-113-R3-J6 complex spheroid viability
Experiment: Anticancer human tumor 899932-113-R3-J6-PDC cell line growth inhibition [RAS];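 for viability, T/C: spheroids exposed to agents for seven days before readout; 100% = DMSO vehicle control wells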
Conditions: second compound 0.000949 µM; first compound 0.003 µM; stronger effect = lower value
MEASUREMENT_KIND: viability, T/C (%)
Write the value in % as a bare number.

COMPOUND	TARGET_OF_ASSAY	UNITS_OF_MEASURE	RECORDED_VALUE
CC1(C)CCC(Nc2ncc(C(F)(F)F)c(-c3c[nH]c4c(P(C)(C)=O)c(C#N)ccc34)n2)CN1 (centres undefined) + CCn1c(-c2cccnc2C(C)OC)c2c3cc(ccc31)N1CCOC(CC(NC(=O)C(C(C)C)N(C)C(=O)C3(F)CCN(C(=O)C#CC(C)(C)N(C)C)CC3)C(=O)N3CCCC(N3)C(=O)OCC(C)(C)C2)C1	PDC 899932-113-R3-J6 complex spheroid viability	%	75.8
CCc1c2c(nc3ccc(O)cc13)-c1cc3c(c(=O)n1C2)COC(=O)[C@]3(O)CC + CCn1c(-c2cccnc2C(C)OC)c2c3cc(ccc31)N1CCOC(CC(NC(=O)C(C(C)C)N(C)C(=O)C3(F)CCN(C(=O)C#CC(C)(C)N(C)C)CC3)C(=O)N3CCCC(N3)C(=O)OCC(C)(C)C2)C1	PDC 899932-113-R3-J6 complex spheroid viability	%	72

INPUT: For the compound CC1(C)CCC(Nc2ncc(C(F)(F)F)c(-c3c[nH]c4c(P(C)(C)=O)c(C#N)ccc34)n2)CN1 (centres undefined) + CCn1c(-c2cc(N3CCN(C)CC3)cnc2C(C)OC)c2c3cc(ccc31)-c1csc(n1)CC(NC(=O)C1CC1C)C(=O)N1CCCC(N1)C(=O)OCC(C)(C)C2 , what viability, T/C is on record?
OUTPUT: 51.2

INPUT: For the compound CCc1c2c(nc3ccc(O)cc13)-c1cc3c(c(=O)n1C2)COC(=O)[C@]3(O)CC + CCn1c(-c2cc(N3CCN(C)CC3)cnc2C(C)OC)c2c3cc(ccc31)-c1csc(n1)CC(NC(=O)C1CC1C)C(=O)N1CCCC(N1)C(=O)OCC(C)(C)C2 , what viability, T/C is on record?
OUTPUT: 39.8

----------
System: PDC 899932-113-R3-J6 complex spheroid viability
Assay: Anticancer human tumor 899932-113-R3-J6-PDC cell line growth inhibition [RAS]
Settings: compound alone; run of 08/20/2024
MEASUREMENT_KIND: IC50

INPUT: For the compound CCn1c(-c2cccnc2C(C)OC)c2c3cc(ccc31)N1CCOC(CC(NC(=O)C(C(C)C)N(C)C(=O)C3(F)CCN(C(=O)C#CC(C)(C)N(C)C)CC3)C(=O)N3CCCC(N3)C(=O)OCC(C)(C)C2)C1 (stereo unspecified) , what IC50 is on record?
OUTPUT: > 300 nM
